Experiment: stability in culture medium
Assay type: physicochemical
Quantity Measured: half-life (h)

INSERT INTO results (smiles_representation, numeric_result) VALUES
  ('CCc1c(CO)c(CO)c2n1Cc1c(c3ccccc3n1C)C2', 36.8);

---

System: H1299 cells
Test: cells
Type: cell-based, human
Details: H1299, 72 hours, alamarBlue
Quantity Measured: IC50 (µM)

INSERT INTO measurements (compound, assayed_target, unit_label, numeric_result) VALUES
  ('N.N.[Cl][Pt][Cl] [Cisplatin]', 'H1299 cells', 'µM', 16.5);

---

System: CCRF-CEM
Test: cytotoxicity in multiple drug-resistant and cisplatin-resistant cells
Assay type: cell-based
Settings: Homo sapiens
Quantity Measured: IC50 (nM)

INSERT INTO results (compound, assayed_target, unit_label, numeric_result) VALUES
  ('CC[C@]1(O)C[C@H]2CN(CCc3c([nH]c4ccccc34)[C@@](C(=O)OC)(c3cc4c(cc3OC)N(C=O)[C@H]3[C@@](O)(C(=O)OC)[C@H](OC(C)=O)[C@]5(CC)C=CCN6CC[C@]43[C@@H]65)C2)C1 [Vincristine, reference compound]', 'CCRF-CEM', 'nM', 2.23),
  ('CCc1c(CO)c(CO)c2n1Cc1c(c3ccccc3n1C)C2', 'CCRF-CEM', 'nM', 460);

---

Assay: whole-blood pharmacokinetics in SD rats
Assay type: in vivo
Conditions: male, SD, rat, whole blood, iv, 10 mg/kg
Quantity Measured: MRT (min)

INSERT INTO results (compound, unit_label, numeric_result) VALUES
  ('CCc1c(CO)c(CO)c2n1Cc1c(c3ccccc3n1C)C2 [BO-1978]', 'min', 27.3);

---

Test system: CL1-5 cells
Experiment: alamarBlue in vitro cytotoxicity assay
Format: cell-based, human
Conditions: Homo sapiens, CL1-5, 72 h
Quantity Measured: IC50 (µM)

INSERT INTO assay_data (compound, numeric_result) VALUES
  ('COc1cc([C@@H]2c3cc4c(cc3[C@@H](O[C@@H]3O[C@@H]5CO[C@@H](C)O[C@H]5[C@H](O)[C@H]3O)[C@H]3COC(=O)[C@H]23)OCO4)cc(OC)c1O [Etoposide]', 12.6),
  ('CCc1c(CO)c(CO)c2n1Cc1c(c3ccccc3n1C)C2', 1.47);

---

Tested on: CL97 cells
Assay: cells
Type: cell-based, human
Details: Homo sapiens, CL97, 72 h
Quantity Measured: IC50 (µM)

INSERT INTO results (compound, numeric_result) VALUES
  ('CCc1c(CO)c(CO)c2n1Cc1c(c3ccccc3n1C)C2', 1.25),
  ('COc1cc([C@@H]2c3cc4c(cc3[C@@H](O[C@@H]3O[C@@H]5CO[C@@H](C)O[C@H]5[C@H](O)[C@H]3O)[C@H]3COC(=O)[C@H]23)OCO4)cc(OC)c1O [Etoposide]', 24.4);

---

System: 11 NSCLC cell lines
Test: cytotoxicity against batch of 11 NSCLC cell lines
Assay type: cell-based
Conditions: Homo sapiens, read-out: IC50 values against NSCLC cells (range)
pIC50: −log10 of the molar value.
Quantity Measured: pIC50

INSERT INTO results (smiles_representation, result) VALUES
  ('CCc1c(CO)c(CO)c2n1Cc1c(c3ccccc3n1C)C2', '5.46 to 5.97');
